The following compounds are shown together with reported growth values.
system: SK-MEL-2 melanoma; experiment: NCI-60 one-dose screen, 48 h (100 = growth as untreated, 0 = no growth, -100 = all killed); conditions: 10 µM
About 83,000 compounds went through this panel and 20% of them were active in at least one assay; those are over-represented in the sample as a whole.

{"compound": "Cc1cc2ccccc2c(O)c1C#N", "growth, %": 112}
{"compound": "COc1cc2c3c(n(C)c(=O)c2cc1OC)-c1cc2c(cc1C3=O)OCO2", "growth, %": 113}
{"compound": "CCOC(=O)C(CCC(C)C)C(=O)OCC", "growth, %": 97.5}
{"compound": "C=CC(O)CCC (configuration not stated)", "growth, %": 122}
{"compound": "CCC(C)(C)C1CCC(O)CC1 (configuration not stated)", "growth, %": 103}
{"compound": "NCCC(=O)c1ccc(Cl)cc1", "growth, %": 101}
{"compound": "CCCC(=O)Nc1ccc2c(c1)CN1C(=O)c3ccccc3C1=N2", "growth, %": 100}

====

system: A549/ATCC NSCLC; assay: NCI-60 one-dose screen, 48 h (100 = growth as untreated, 0 = no growth, -100 = all killed); conditions: 10 µM
Compounds without any hit were thinned out: in the full panel of roughly 83,000, 20% have a hit.
Would you please tag the item met when its growth is 90% or above, and not met when it is below?

{"compound": "CCC(C#N)(CC)c1ccccc1", "qualitative.label": "met"}
{"compound": "O=C(CN1CCNCC1)N1CCOCC1", "qualitative.label": "met"}
{"compound": "OCCN1CCOCC1", "qualitative.label": "met"}
{"compound": "CCCCC/C=N/Nc1nc(C)cc(=O)[nH]1", "qualitative.label": "not met"}
{"compound": "O=C(O)c1ccnc(Br)c1", "qualitative.label": "met"}
{"compound": "COc1cc(C2c3cc4c(cc3C3OC(=O)C2C3CO)OCO4)cc(OC)c1OC (stereo not given)", "qualitative.label": "not met"}

====

Test system: SN12C renal
Assay: NCI-60 one-dose screen, 48 h
Conditions: 10 µM
Method: Growth inhibition of the SN12C human tumor cell line is measured as a screen for anti-cancer activity. Cells are grown in 96 well plates and exposed to the test compound for 48 hours. Compounds are tested at a single concentration, which is 10^-5 M for most compounds. The reported endpoint is percent growth (GI% or GIPRCNT), where numbers from 0 - 100% represent growth inhibition, and numbers from -100% - 0 represent cell death. For example, a value of 40 represents 60% growth inhibition. […]
Compounds without any hit were thinned out: in the full panel of roughly 83,000, 20% have a hit. The source made the active and inactive calls. The calls were made as follows: active = growth percent below 10; inactive = the rest.
Classes used: class 1 = active, class 0 = inactive

{"compound": "COC(=O)/C=C1\\Sc2cc(F)ccc2NC1=O", "study.target": "SN12C renal", "qualitative.label": "class 0"}
{"compound": "CNC(=S)NC(C)(C)C", "study.target": "SN12C renal", "qualitative.label": "class 0"}
{"compound": "CSc1[nH]c(=O)ncc1F", "study.target": "SN12C renal", "qualitative.label": "class 0"}
{"compound": "CC(C)C(C#N)(C(C)C)C(C)C", "study.target": "SN12C renal", "qualitative.label": "class 0"}
{"compound": "CN(c1ccccc1)c1ncnc2c1ncn2C", "study.target": "SN12C renal", "qualitative.label": "class 0"}
{"compound": "CCOc1ccc(Br)cc1/C=N\\N=C\\c1cc(Br)ccc1OCC", "study.target": "SN12C renal", "qualitative.label": "class 0"}
{"compound": "CCS(=O)(=O)c1cc(=O)[nH]c(=O)[nH]1", "study.target": "SN12C renal", "qualitative.label": "class 0"}
{"compound": "CC1(c2ccccc2)NC(=O)NC1=O (stereo not given)", "study.target": "SN12C renal", "qualitative.label": "class 0"}
{"compound": "Sc1ccc(Nc2c3ccccc3nc3ccccc23)cc1", "study.target": "SN12C renal", "qualitative.label": "class 0"}
{"compound": "O=S(=O)(O)CC(O)CN1CCN(CCO)CC1 (stereo not given)", "study.target": "SN12C renal", "qualitative.label": "class 0"}
{"compound": "Brc1cnc2ccccc2c1", "study.target": "SN12C renal", "qualitative.label": "class 0"}
{"compound": "C#CC(C)(O)c1ccc(Cl)cc1 (stereo not given)", "study.target": "SN12C renal", "qualitative.label": "class 0"}
{"compound": "O=C(O)CCCc1ccccc1", "study.target": "SN12C renal", "qualitative.label": "class 0"}
{"compound": "Cc1ccc(C)n1-c1ccsc1C(=O)NNC(=O)C(Cl)Cl", "study.target": "SN12C renal", "qualitative.label": "class 0"}
{"compound": "N#C/C(=C\\c1cc(O)c(O)c(O)c1)C(N)=O", "study.target": "SN12C renal", "qualitative.label": "class 0"}
{"compound": "CCOC(=O)C(O)C(O)C(=O)OCC (stereo not given)", "study.target": "SN12C renal", "qualitative.label": "class 0"}
{"compound": "CCN=c1cc2sc3cc(NCC)c(C)cc3nc-2cc1C", "study.target": "SN12C renal", "qualitative.label": "class 1"}
{"compound": "CCOC(=O)Nc1nn[nH]n1", "study.target": "SN12C renal", "qualitative.label": "class 0"}
{"compound": "CC(=O)N(C)c1ccc([N+](=O)[O-])cc1", "study.target": "SN12C renal", "qualitative.label": "class 0"}
{"compound": "CC1CCCC(CC(N)=O)CC1 (stereo not given)", "study.target": "SN12C renal", "qualitative.label": "class 0"}
{"compound": "CC1Cc2ccccc2O1 (stereo not given)", "study.target": "SN12C renal", "qualitative.label": "class 0"}
{"compound": "CCOC(=O)c1ccc(Nc2sc(C(=O)c3cccc([N+](=O)[O-])c3)c(N)c2C#N)cc1", "study.target": "SN12C renal", "qualitative.label": "class 0"}
{"compound": "NNc1ccccc1C(=O)O", "study.target": "SN12C renal", "qualitative.label": "class 0"}
{"compound": "COC(=O)CCCCC1=CCC2C(=O)C=C(O)C2C1 (stereo not given)", "study.target": "SN12C renal", "qualitative.label": "class 0"}
{"compound": "CCCC(C)OCC(=O)O (stereo not given)", "study.target": "SN12C renal", "qualitative.label": "class 0"}
{"compound": "CC(=O)OCC1OC(OC2=C(CC=C(C)C)C(=O)c3ccccc3C2=O)C(OC(C)=O)C(OC(C)=O)C1OC(C)=O (stereo not given)", "study.target": "SN12C renal", "qualitative.label": "class 0"}
{"compound": "C/C(=N\\NC(=O)c1ccccc1N)c1ccccc1O", "study.target": "SN12C renal", "qualitative.label": "class 0"}
{"compound": "[O-][N+](=Nc1cccc(Cl)c1)c1cccc(Cl)c1", "study.target": "SN12C renal", "qualitative.label": "class 0"}
{"compound": "O=[N+]([O-])c1ccc(Sc2ccncn2)c([N+](=O)[O-])c1", "study.target": "SN12C renal", "qualitative.label": "class 0"}
{"compound": "N#Cc1ccc(NC(=O)Nc2cccc(C#N)c2)cc1", "study.target": "SN12C renal", "qualitative.label": "class 0"}
{"compound": "Cc1ccc(S(=O)(=O)O)c(C)c1", "study.target": "SN12C renal", "qualitative.label": "class 0"}
{"compound": "CC(C)OC(C(=O)O)c1ccccc1 (stereo not given)", "study.target": "SN12C renal", "qualitative.label": "class 0"}
{"compound": "COc1cccc(Sc2ccc([N+](=O)[O-])c3no[n+]([O-])c23)c1", "study.target": "SN12C renal", "qualitative.label": "class 0"}
{"compound": "CC(CC(=O)c1ccccc1)c1ccccc1 (stereo not given)", "study.target": "SN12C renal", "qualitative.label": "class 0"}
{"compound": "C/C(=C\\c1ccc([N+](=O)[O-])cc1)C(=O)O", "study.target": "SN12C renal", "qualitative.label": "class 0"}

====

system: NCI-H23 lung; assay: NCI-60 one-dose screen, 48 h (100 = growth as untreated, 0 = no growth, -100 = all killed); details: 10 µM
This is part of a sample that, as a whole, favours compounds with a hit. Of some 83,000 tested, about 20% had one in any assay.
assay.metric: growth (%)

{"compound": "O=C(O)CSCSCC(=O)O", "quantity.unit": "%", "reading": 99.8}
{"compound": "COc1ccc(C)cc1OC", "quantity.unit": "%", "reading": 96.4}
{"compound": "CCOC(=O)/C(C#N)=C/c1cccc(C)c1", "quantity.unit": "%", "reading": 99.5}
{"compound": "Nc1ccc(CC(=O)O)c(N)c1", "quantity.unit": "%", "reading": 92.3}
{"compound": "O=[N+]([O-])c1ccc(S(=O)(=O)NN=C2CCCCC2)cc1", "quantity.unit": "%", "reading": 104}
{"compound": "CC(C(=O)O)(C1CCCCC1)C1(O)CCCCC1 (centres undefined)", "quantity.unit": "%", "reading": 103}
{"compound": "COc1cc(CN)ccc1O", "quantity.unit": "%", "reading": 99.4}
{"compound": "CC(C)OC(C(=O)O)c1ccccc1 (centres undefined)", "quantity.unit": "%", "reading": 101}
{"compound": "CC(CC(=O)c1ccccc1)c1ccccc1 (centres undefined)", "quantity.unit": "%", "reading": 106}
{"compound": "O=C(O)c1cccc([N+](=O)[O-])c1O", "quantity.unit": "%", "reading": 98.9}
{"compound": "CN(C)/N=C/c1ccccc1O", "quantity.unit": "%", "reading": 113}
{"compound": "Cc1ccccc1C1N=C2Oc3ccccc3C=C2C(=O)N1 (centres undefined)", "quantity.unit": "%", "reading": 48.7}
{"compound": "COC(=O)C(O)c1ccccc1 (centres undefined)", "quantity.unit": "%", "reading": 106}
{"compound": "COc1cc2nc3cc([N+](=O)[O-])ccc3c(Cl)c2cc1OC", "quantity.unit": "%", "reading": 98.6}
{"compound": "OCc1cccc2ccccc12", "quantity.unit": "%", "reading": 101}
{"compound": "CCOc1ccc(/C=C/C(=O)c2ccccc2)cc1", "quantity.unit": "%", "reading": 106}
{"compound": "CCc1ccc(/C(C#N)=C/C=C/c2ccccc2)cc1", "quantity.unit": "%", "reading": 33.4}
{"compound": "O=c1[nH]cc(Cl)cc1O", "quantity.unit": "%", "reading": 96.4}
{"compound": "CCC/C=C(/C(C)=O)C(=O)OCC", "quantity.unit": "%", "reading": 107}
{"compound": "CCCCCCCCO", "quantity.unit": "%", "reading": 97.5}
{"compound": "COc1ccc(C(C)C=O)cc1 (centres undefined)", "quantity.unit": "%", "reading": 106}
{"compound": "O=C(Nc1ccccc1C(=O)NCC1CC1)c1cccs1", "quantity.unit": "%", "reading": 109}
{"compound": "O=C(O)/C=C/c1ccc2c(c1)CCC2", "quantity.unit": "%", "reading": 113}
{"compound": "CC(=O)Cc1ccc(-c2ccccc2)cc1", "quantity.unit": "%", "reading": 95.6}

Origin of values: PubChem BioAssay (NCI)
